The measurements presented in this section are drawn from paper PMC10744269.

property: melting point (°C)
Answers are plain numbers, in °C.

# compound, property, numericReadout
rows = [
    ("Cc1cc2nc(N(C)C(=O)c3ccccc3)sc2cc1C [Compound 3ca]", "melting point", 231),
    ("Cc1cc(Br)c2c(c1)SC(NC(=O)Oc1ccccc1)N2C(=O)Oc1ccccc1 (stereo not drawn) [Compound 9b]", "melting point", 100),
]

API: the following record is the query input.
For Cc1cc2nc(NC(=O)c3ccccc3)sc2cc1C [Compound 3c] , what is its reported melting point? 210

###

For each record, write down the corresponding IC50.
# Tested on: murine macrophage cell line J774
# assaySummary: MTT antiproliferative assay, J774
# Assay type: cell-based
# condition: Mus musculus, 72 h after drug treatment, threshold 10 μM, read-out: IC50 J-774

Answered cases to consult:
# compound, IC50
measured = [
    ("Cc1ccc2nc(NC(=O)NCc3ccccc3)sc2c1 [Compound 7a]", "> 10 µM"),
    ("Cc1cc2nc(NC(=O)Nc3ccccc3)sc2cc1C [Compound 6c]", "0.27 µM"),
    ("COc1ccc2nc(NC(=O)c3ccccc3)sc2c1 [Compound 3e]", "> 10 µM"),
    ("Cc1cc2nc(NC(=O)c3ccccc3)sc2cc1C [Compound 3c]", "7.73 µM"),
    ("Cc1ccc2nc(NC(=O)c3ccccc3)sc2c1 [Compound 3a]", "> 10 µM"),
    ("COc1ccc2nc(N(C)C(=O)c3ccccc3)sc2c1 [Compound 3ea]", "> 10 µM"),
    ("CCNC(=O)Nc1nc2cc(C)c(C)cc2s1 [Compound 5c]", "> 10 µM"),
    ("CCOC(=O)Nc1nc2c(Br)cc(C)cc2s1 [Compound 8b]", "> 10 µM"),
    ("Cc1ccc2nc(NC(=O)Cc3ccccc3)sc2c1 [Compound 4a]", "> 10 µM"),
]

API: the following record is the query input.
For Cc1ccc2nc(NC(=O)Nc3ccccc3)sc2c1 [Compound 6a] , what is its reported IC50? 1.97 µM
